# Tested on: T-47D breast
# assayExplanation: NCI tumour cell line growth inhibition, 48 h; in the data active means GI50 below about 0.43 µM; inactive means the rest
Pick from active, inactive when you respond.

Answered examples (2):
>>> cat("CC(=[N-])N1CCC[C@@H](Nc2c3ccccc3nc3ccccc23)C1.[Cl][Pt].[NH-]CCC[NH-]")
"active"
>>> cat("O=C(Nc1cccc(-c2ccc(Cl)c(C(F)(F)F)c2)c1)C1CCN(Cc2cccc3cccnc23)CC1")
"inactive"

Shift focus to the following entry.
### Prompt What classification did O=[N+]([O-])c1cc(C(F)(F)F)ccc1Sc1ccc(C(F)(F)F)cc1[N+](=O)[O-] end up with in this test?
### Response inactive

---

# Test system: SF-539 CNS
# assayExplanation: NCI tumour cell line growth inhibition, 48 h
Provide the reported TGI of each item.
Answers are plain numbers, in µM.

>>> observedmeasurement("N#C/C(=C\\c1ccc(Br)cc1)n1nnc2cc(Cl)c(Cl)cc21")
4.86
>>> observedmeasurement("Oc1ccc(C2c3ccccc3Oc3ccccc32)c2cccnc12")
25.5
>>> observedmeasurement("O=S(=O)(SC1=NCCN1)c1cccc2ccccc12")
49.6
>>> observedmeasurement("Nc1ccc(-c2cccs2)cc1NC(=O)c1ccc(CCCC(=O)Nc2ccc(C3CC3N)cc2)cc1 (configuration not stated)")
7.94
>>> observedmeasurement("CO/N=C(\\COc1ccc2oc(-c3ccccc3)cc(=O)c2c1)c1ccc(OC)cc1")
64.7
>>> observedmeasurement("O=C(O)c1c(=O)cccc2ssc12")
3.84
>>> observedmeasurement("CC(=[N-])N1CCC[C@@H](Nc2c3ccccc3nc3ccccc23)C1.[Cl][Pt].[NH-]CCC[NH-]")
18.1
>>> observedmeasurement("O=C(N/N=C/c1ccc(O)cc1O)c1cccc(Nc2ccnc(C(F)(F)F)c2)c1")
7.74

Give one value of TGI per listed molecule.
1. CSc1snc2sc3c(Cl)nnnc3c12
2. C=C1C(=O)O[C@H]2[C@H]1CC/C(COC(=O)C(C)c1ccc(CC(C)C)cc1)=C\CC[C@@]1(C)O[C@@H]21 (some centres not stated)

### Response
32.1
2.97
